All figures here come from ChEMBL document CHEMBL1129373.

# Measured On: Steroid 17-alpha-hydroxylase/17,20 lyase (Homo sapiens, UniProt P05093)
# Sequence (P05093 whole entry): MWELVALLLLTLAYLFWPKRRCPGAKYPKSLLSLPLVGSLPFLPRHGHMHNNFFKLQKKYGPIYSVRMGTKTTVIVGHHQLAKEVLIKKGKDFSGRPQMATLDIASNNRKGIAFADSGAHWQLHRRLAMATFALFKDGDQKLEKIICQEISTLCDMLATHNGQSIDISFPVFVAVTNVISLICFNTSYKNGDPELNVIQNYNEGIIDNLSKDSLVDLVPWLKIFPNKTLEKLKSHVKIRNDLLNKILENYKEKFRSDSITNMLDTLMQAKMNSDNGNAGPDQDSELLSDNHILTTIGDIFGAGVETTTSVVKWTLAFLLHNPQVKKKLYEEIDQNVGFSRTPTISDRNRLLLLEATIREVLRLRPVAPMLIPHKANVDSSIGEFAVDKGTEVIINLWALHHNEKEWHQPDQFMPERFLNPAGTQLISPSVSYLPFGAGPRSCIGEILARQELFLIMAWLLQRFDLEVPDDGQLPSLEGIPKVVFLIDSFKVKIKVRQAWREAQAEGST
# Procedure Text: Inhibition of human testicular steroid 17-alpha-hydroxylase
# Condition Context: read-out: IC50
# pIC50 listing for each entry below
# pIC50: negative log10 of molar concentration; output just the value

// solved cases for pIC50 follow
Molecule	Value Observed
C[C@]12CC[C@H](O)CC1=CCC1C2CC[C@]2(C)/C(=N/O)CCC12 (some centres not stated)	4.87
C/C(=N/O)C1CCC2C3CC=C4C[C@@H](O)CC[C@]4(C)C3CC[C@]12C (some centres not stated)	6.28

Query pIC50 on Steroid 17-alpha-hydroxylase/17,20 lyase (Homo sapiens, UniProt P05093) for C/C(=N\N)[C@H]1CC[C@H]2[C@@H]3CC=C4C[C@@H](O)CC[C@]4(C)[C@H]3CC[C@]12C
5.00

Query pIC50 on Steroid 17-alpha-hydroxylase/17,20 lyase (Homo sapiens, UniProt P05093) for C=CC1CCC2C3CC=C4C[C@@H](O)CC[C@]4(C)C3CC[C@]12C (some centres not stated)
5.54

Query pIC50 on Steroid 17-alpha-hydroxylase/17,20 lyase (Homo sapiens, UniProt P05093) for CC(O)C1CCC2C3CC=C4C[C@@H](O)CC[C@]4(C)C3CC[C@]12C (some centres not stated)
6.14

Query pIC50 on Steroid 17-alpha-hydroxylase/17,20 lyase (Homo sapiens, UniProt P05093) for C[C@@H](/C=N/O)[C@H]1CC[C@H]2[C@@H]3CCC4=CC(=O)CC[C@]4(C)[C@H]3CC[C@]12C
5.22

Query pIC50 on Steroid 17-alpha-hydroxylase/17,20 lyase (Homo sapiens, UniProt P05093) for CN(C=O)C1CCC2C3CCC4=CC(=O)CC[C@]4(C)C3CC[C@@]21C (some centres not stated)
6.10

Query pIC50 on Steroid 17-alpha-hydroxylase/17,20 lyase (Homo sapiens, UniProt P05093) for C#CC1CCC2C3CC=C4C[C@@H](O)CC[C@]4(C)C3CC[C@]12C (some centres not stated)
5.45

Query pIC50 on Steroid 17-alpha-hydroxylase/17,20 lyase (Homo sapiens, UniProt P05093) for C/C(=N\N(C)C)C1=CCC2C3CC=C4C[C@@H](O)CC[C@]4(C)C3CC[C@]12C (some centres not stated)
4.36

Query pIC50 on Steroid 17-alpha-hydroxylase/17,20 lyase (Homo sapiens, UniProt P05093) for C[C@@H](O)C1CCC2C3CCC4=CC(=O)CC[C@]4(C)C3CC[C@@]21C (some centres not stated)
6.31

Query pIC50 on Steroid 17-alpha-hydroxylase/17,20 lyase (Homo sapiens, UniProt P05093) for C[C@@H](O)[C@H]1CC[C@H]2[C@@H]3CCC4=CC(=O)CC[C@]4(C)[C@H]3CC[C@]12C
5.55

Query pIC50 on Steroid 17-alpha-hydroxylase/17,20 lyase (Homo sapiens, UniProt P05093) for C[C@@H](O)C1CCC2C3CC=C4C[C@@H](O)CC[C@]4(C)C3CC[C@@]21C (some centres not stated)
6.74

Query pIC50 on Steroid 17-alpha-hydroxylase/17,20 lyase (Homo sapiens, UniProt P05093) for C[C@H](N)[C@H]1CC[C@H]2[C@@H]3CC=C4C[C@@H](O)CC[C@]4(C)[C@H]3CC[C@]12C
4.05

Query pIC50 on Steroid 17-alpha-hydroxylase/17,20 lyase (Homo sapiens, UniProt P05093) for C[C@@H](N)[C@H]1CC[C@H]2[C@@H]3CC=C4C[C@@H](O)CC[C@]4(C)[C@H]3CC[C@]12C
5.01

Query pIC50 on Steroid 17-alpha-hydroxylase/17,20 lyase (Homo sapiens, UniProt P05093) for C[C@]12CCC3C(CC=C4C[C@@H](O)CC[C@@]43C)C1CCC2[C@]1(C)CO1 (some centres not stated)
6.14

Query pIC50 on Steroid 17-alpha-hydroxylase/17,20 lyase (Homo sapiens, UniProt P05093) for C/C(C#N)=C1/CCC2C3CCC4=CC(=O)CC[C@]4(C)C3CC[C@]12C (some centres not stated)
5.91

Query pIC50 on Steroid 17-alpha-hydroxylase/17,20 lyase (Homo sapiens, UniProt P05093) for CC(=O)C1=CCC2C3CC=C4C[C@@H](O)CC[C@]4(C)C3CC[C@]12C (some centres not stated)
6.29

Query pIC50 on Steroid 17-alpha-hydroxylase/17,20 lyase (Homo sapiens, UniProt P05093) for C/C(=N/O)C1=CCC2C3CC=C4C[C@@H](O)CC[C@]4(C)C3CC[C@]12C (some centres not stated)
7.80

Query pIC50 on Steroid 17-alpha-hydroxylase/17,20 lyase (Homo sapiens, UniProt P05093) for C[C@]12CC[C@H](O)CC1=CCC1C2CC[C@]2(C)/C(=N/N)CCC12 (some centres not stated)
5.19
